The entries below are paired with their reported remaining at 1 h, 5 µM.
- Tested on: CYP450
- procedureDetails: Drug metabolism in rat liver microsome S9 fraction assessed as CYP450-mediated metabolism by measuring compound remaining at 5 uM pretreated with NADPH and measured after 60 mins by UPLC-MS/MS analysis
- Type: ADME, microsomes
- measurementContext: liver microsome S9 fraction, read-out: Stability
Give your result in % as a bare value.

Nc1ncnc2c1c(-c1ccc(Cl)cc1)cn2[C@@H]1O[C@H](CO)[C@@H](O)[C@H]1O 106

Let's switch to this molecule now.
What value of remaining at 1 h, 5 µM has been recorded for this entry: Nc1ncnc2c1c(-c1ccc(Cl)cc1)cn2[C@@H]1O[C@H](CO)C[C@H]1O
91
